Assay System: CDK4/cyclinD3 (Homo sapiens)
Sequence (P11802 whole entry, one chain of several): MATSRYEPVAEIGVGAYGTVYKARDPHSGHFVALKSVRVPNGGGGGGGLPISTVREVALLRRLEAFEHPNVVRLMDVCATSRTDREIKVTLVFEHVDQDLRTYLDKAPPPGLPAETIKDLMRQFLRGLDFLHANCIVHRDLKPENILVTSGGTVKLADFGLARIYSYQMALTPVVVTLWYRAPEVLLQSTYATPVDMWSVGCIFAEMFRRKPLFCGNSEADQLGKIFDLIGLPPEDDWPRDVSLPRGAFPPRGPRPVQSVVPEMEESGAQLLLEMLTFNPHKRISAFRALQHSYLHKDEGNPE
Procedure Details: Cyclin-dependent kinase activity assay (continuous ATP coupling assay), CDK4/cyclinD3
Condition Info: CDK4/cyclinD3 60 nM, ATP 500 μM, Rb copeptide 500 μM, 15 min preincubation, pH 7.5, 1% DMSO
pIC50: −log10 of the molar value.
Measured Quantity: pIC50

Recorded pIC50, per entry:
{"Compound": "O=S(=O)(NC1(CO)CC1)c1ccc(Nc2ncc(C(F)(F)F)c(-n3cccn3)n2)cc1", "pIC50": "≤ 7.00"}
{"Compound": "CNS(=O)(=O)c1ccc(Nc2ncc(C#N)c(-n3cc(CC(C)(C)O)cn3)n2)cc1", "pIC50": "7.00 to 8.00"}
{"Compound": "CNS(=O)(=O)c1ccc(Nc2ncc(C#N)c(-n3cccn3)n2)cc1", "pIC50": "≤ 7.00"}
{"Compound": "CNS(=O)(=O)c1ccc(Nc2ncc(C(F)(F)F)c(-n3ccc(C4CC4)n3)n2)cc1", "pIC50": "≤ 7.00"}

Sample [2H]C([2H])([2H])NS(=O)(=O)c1ccc(Nc2ncc(C(F)(F)F)c(-n3ccc(C(F)(F)F)n3)n2)cc1 ; pIC50 observed: ≤ 7.00

Sample CNS(=O)(=O)c1ccc(Nc2ncc(C(F)(F)F)c(-n3cccn3)n2)c(F)c1 ; pIC50 observed: ≤ 7.00

Sample CNS(=O)(=O)c1ccc(Nc2ncc(C(F)(F)F)c(-n3cc([C@H]4CCC[C@@H]4O)cn3)n2)cc1 (single isomer, unassigned) ; pIC50 observed: 7.00 to 8.00

* * *

Assay System: CDK6/cyclinD3 (Homo sapiens)
Procedure Details: Cyclin-dependent kinase activity assay (continuous ATP coupling assay), CDK6/cyclinD3
Condition Info: CDK6/cyclinD3 25 nM, ATP 500 μM, Rb copeptide 500 μM, 15 min preincubation, pH 7.5, 1% DMSO
IC50 listing for selected molecules.

Recorded IC50, per entry:
{"Molecule": "CNS(=O)(=O)c1ccc(Nc2ncc(C(F)(F)F)c(-n3cc(C4CC4(F)F)cn3)n2)cc1 (single isomer, unassigned) [Example 53]", "Result": "≥ 100 nM"}
{"Molecule": "CNS(=O)(=O)c1ccc(Nc2nccc(-n3cccn3)n2)cc1", "Result": "≥ 100 nM"}
{"Molecule": "CNS(=O)(=O)c1ccc(Nc2ncc(C(F)(F)F)c(-n3cc(C[C@@H](C)O)cn3)n2)cc1 (single isomer, unassigned)", "Result": "10 to 100 nM"}

Sample CN1CCC(N2CCN(c3ccc(Nc4ncc(C(F)(F)F)c(-n5cccn5)n4)cc3)CC2)CC1 ; IC50 observed: ≥ 100 nM

Sample CNS(=O)(=O)c1ccc(Nc2ncc(C(F)(F)F)c(-n3cc(N4CCCC4=O)cn3)n2)cc1 ; IC50 observed: ≥ 100 nM

Sample O=S(=O)(c1ccc(Nc2ncc(C(F)(F)F)c(-n3cccn3)n2)cc1)N1CCNCC1 ; IC50 observed: 10 to 100 nM

Sample O=S(=O)(NCCCCO)c1ccc(Nc2ncc(C(F)(F)F)c(-n3cccn3)n2)cc1 ; IC50 observed: ≥ 100 nM

Sample O=S(=O)(NCCCO)c1ccc(Nc2ncc(C(F)(F)F)c(-n3cccn3)n2)cc1 ; IC50 observed: ≥ 100 nM

* * *

Assay System: CDK2/cyclinE1 (Homo sapiens, UniProt P24941)
Procedure Details: Cyclin-dependent kinase activity assay (continuous ATP coupling assay), CDK2/cyclinE1
Condition Info: CDK2/cyclinE1 5 nM, ATP 300 μM, Rb copeptide 100 μM, 15 min preincubation, pH 7.5, 1% DMSO
IC50 listing for selected compounds.

Recorded IC50, per entry:
{"Compound": "CNS(=O)(=O)c1ccc(Nc2ncc(C(F)(F)F)c(-n3cc(C4=CCCC4)cn3)n2)cc1 [Example 12]", "Assay System": "CDK2/cyclinE1 (Homo sapiens, UniProt P24941)", "Result": "10 to 100 nM"}
{"Compound": "CC(O)CNS(=O)(=O)c1ccc(Nc2ncc(C(F)(F)F)c(-n3cccn3)n2)cc1 (stereo not shown) [Example 110]", "Assay System": "CDK2/cyclinE1 (Homo sapiens, UniProt P24941)", "Result": "≤ 10 nM"}
{"Compound": "CN1CCC(NS(=O)(=O)c2ccc(Nc3ncc(C(F)(F)F)c(-n4cccn4)n3)cc2)CC1 [Example 35]", "Assay System": "CDK2/cyclinE1 (Homo sapiens, UniProt P24941)", "Result": "≤ 10 nM"}

Short answer on CDK2/cyclinE1 (Homo sapiens, UniProt P24941) for CC(C)(CO)NS(=O)(=O)c1ccc(Nc2ncc(C(F)(F)F)c(-n3cccn3)n2)cc1 [Example 134] , IC50: ≤ 10 nM

* * *

Assay System: CDK6/cyclinD3 (Homo sapiens, UniProt Q00534)
Sequence (Q00534 whole entry): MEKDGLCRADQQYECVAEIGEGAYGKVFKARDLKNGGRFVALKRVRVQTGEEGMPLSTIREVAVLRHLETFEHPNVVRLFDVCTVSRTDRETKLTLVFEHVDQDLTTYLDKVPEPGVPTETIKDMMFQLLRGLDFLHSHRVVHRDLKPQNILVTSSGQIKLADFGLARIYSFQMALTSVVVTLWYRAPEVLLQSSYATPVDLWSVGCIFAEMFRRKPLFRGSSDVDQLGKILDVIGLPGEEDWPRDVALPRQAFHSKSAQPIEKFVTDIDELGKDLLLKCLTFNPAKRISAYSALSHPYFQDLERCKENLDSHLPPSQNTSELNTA
Sequence (P30281 whole entry partner): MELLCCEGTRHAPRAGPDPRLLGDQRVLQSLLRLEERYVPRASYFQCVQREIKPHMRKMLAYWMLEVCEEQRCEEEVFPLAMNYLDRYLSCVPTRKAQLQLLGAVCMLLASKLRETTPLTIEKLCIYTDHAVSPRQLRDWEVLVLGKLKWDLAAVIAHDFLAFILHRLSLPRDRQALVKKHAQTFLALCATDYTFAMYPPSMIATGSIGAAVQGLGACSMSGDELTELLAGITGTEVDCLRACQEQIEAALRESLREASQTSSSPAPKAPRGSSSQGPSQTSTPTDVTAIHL
Procedure Details: Cyclin-dependent kinase activity assay (continuous ATP coupling assay), CDK6/cyclinD3
Condition Info: CDK6/cyclinD3 25 nM, ATP 500 μM, Rb copeptide 500 μM, 15 min preincubation, pH 7.5, 1% DMSO
Measured Quantity: IC50

Recorded IC50, per entry:
{"Molecule": "CNS(=O)(=O)c1ccc(Nc2ncc(C(F)(F)F)c(-n3cc(C4CC4(F)F)cn3)n2)cc1 (single isomer, unassigned) [Example 52]", "Measured Quantity": "IC50", "Result": "10 to 100 nM"}
{"Molecule": "O=S(=O)(NC1(CO)CC1)c1ccc(Nc2ncc(C(F)(F)F)c(-n3cccn3)n2)cc1", "Measured Quantity": "IC50", "Result": "≥ 100 nM"}

Sample CNS(=O)(=O)c1ccc(Nc2ncc(C(F)(F)F)c(-n3cc(C4CCCN4)cn3)n2)cc1 (single isomer, unassigned) ; IC50 observed: 10 to 100 nM

Sample CNS(=O)(=O)c1ccc(Nc2ncc(C(F)(F)F)c(-n3cc(CC(C)C)cn3)n2)cc1 ; IC50 observed: 10 to 100 nM

Sample N#Cc1cnc(Nc2ccc(S(=O)(=O)NCCO)cc2)nc1-n1cccn1 ; IC50 observed: 10 to 100 nM

Sample CNS(=O)(=O)c1ccc(Nc2ncc(C(F)(F)F)c(-n3cc(CC(C)(C)O)cn3)n2)cc1 ; IC50 observed: 10 to 100 nM

Sample O=S(=O)(NCCOC(F)(F)F)c1ccc(Nc2ncc(C(F)(F)F)c(-n3cccn3)n2)cc1 ; IC50 observed: ≥ 100 nM

Sample CNS(=O)(=O)c1ccc(Nc2ncc(Cl)c(-n3cccn3)n2)cc1 ; IC50 observed: ≥ 100 nM

Sample CC(O)Cc1cnn(-c2nc(NC3CCN(S(C)(=O)=O)CC3)ncc2C(F)(F)F)c1 (single isomer, unassigned) [Example 107] ; IC50 observed: 10 to 100 nM

* * *

Assay System: CDK1/cyclinB1 (Homo sapiens, UniProt P06493)
Sequence (P06493 whole entry): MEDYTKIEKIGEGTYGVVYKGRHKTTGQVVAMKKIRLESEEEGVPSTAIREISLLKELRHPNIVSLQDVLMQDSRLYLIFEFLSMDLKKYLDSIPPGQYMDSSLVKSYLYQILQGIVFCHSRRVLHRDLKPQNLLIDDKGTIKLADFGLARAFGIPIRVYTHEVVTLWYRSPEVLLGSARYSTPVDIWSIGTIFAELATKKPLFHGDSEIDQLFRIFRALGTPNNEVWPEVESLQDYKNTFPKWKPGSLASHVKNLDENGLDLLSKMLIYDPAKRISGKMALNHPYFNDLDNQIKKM
Sequence (P14635 whole entry partner): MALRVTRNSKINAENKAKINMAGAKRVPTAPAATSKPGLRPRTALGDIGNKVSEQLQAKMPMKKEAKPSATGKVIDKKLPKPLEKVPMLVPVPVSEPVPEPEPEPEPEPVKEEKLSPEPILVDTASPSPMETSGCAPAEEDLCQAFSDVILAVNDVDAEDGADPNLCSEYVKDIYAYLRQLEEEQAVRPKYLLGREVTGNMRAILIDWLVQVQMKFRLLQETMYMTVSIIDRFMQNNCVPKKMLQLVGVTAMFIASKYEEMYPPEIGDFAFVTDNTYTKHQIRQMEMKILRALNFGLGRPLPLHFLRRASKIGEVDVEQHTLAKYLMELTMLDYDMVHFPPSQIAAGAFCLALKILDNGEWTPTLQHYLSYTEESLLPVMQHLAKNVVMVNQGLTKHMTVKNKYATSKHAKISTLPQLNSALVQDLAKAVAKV
Procedure Details: Cyclin-dependent kinase activity assay (continuous ATP coupling assay), CDK1/cyclinB1
Condition Info: CDK1/cyclinB1 10 nM, ATP 200 μM, Histone1 copeptide 100 μM, 15 min preincubation, pH 7.5, 1% DMSO
IC50 listing for selected compounds.

Recorded IC50, per entry:
{"Compound": "CC(C)(O)Cc1cnn(-c2nc(Nc3ccc(S(=O)(=O)NC4CC4)cc3)ncc2C(F)(F)F)c1", "Result": "≥ 100 nM"}
{"Compound": "CN1CCC(NS(=O)(=O)c2ccc(Nc3ncc(C(F)(F)F)c(-n4cccn4)n3)cc2)CC1", "Result": "≥ 100 nM"}
{"Compound": "CNS(=O)(=O)c1ccc(Nc2ncc(C(F)(F)F)c(-n3cc(C4CC4(F)F)cn3)n2)cc1 (single isomer, unassigned) [Example 52]", "Result": "≥ 100 nM"}
{"Compound": "CNS(=O)(=O)c1ccc(Nc2ncc(C(F)(F)F)c(-n3cc(N4CCCC4=O)cn3)n2)cc1", "Result": "≥ 100 nM"}
{"Compound": "CNS(=O)(=O)c1ccc(Nc2ncc(C(F)(F)F)c(-n3cc(C[C@@H](C)O)cn3)n2)cc1 (single isomer, unassigned)", "Result": "10 to 100 nM"}
{"Compound": "O=S(=O)(NCCO)c1ccc(Nc2ncc(F)c(-n3cccn3)n2)cc1", "Result": "≥ 100 nM"}
{"Compound": "CNS(=O)(=O)c1ccc(Nc2ncc(C(F)(F)F)c(-n3cc(C4COC4)cn3)n2)cc1", "Result": "≥ 100 nM"}
{"Compound": "CC(C)(CO)NS(=O)(=O)c1ccc(Nc2ncc(C(F)(F)F)c(-n3cccn3)n2)cc1", "Result": "≥ 100 nM"}

Sample CNS(=O)(=O)c1ccc(Nc2ncc(C(F)(F)F)c(-n3cc(C4CCN(C(C)=O)CC4)cn3)n2)cc1 ; IC50 observed: ≥ 100 nM

Sample CNS(=O)(=O)c1ccc(Nc2ncc(C(F)(F)F)c(-n3cc(C(F)(F)F)cn3)n2)cc1 ; IC50 observed: 10 to 100 nM

Sample CNS(=O)(=O)c1ccc(Nc2ncc(C(F)(F)F)c(-n3cc(CC(C)(C)O)cn3)n2)cc1 ; IC50 observed: 10 to 100 nM

Sample CN(C)CCNS(=O)(=O)c1ccc(Nc2ncc(C(F)(F)F)c(-n3cccn3)n2)cc1 ; IC50 observed: 10 to 100 nM

Sample CNS(=O)(=O)c1ccc(Nc2ncc(C(F)(F)F)c(-n3cc(CC(C)C)cn3)n2)cc1 ; IC50 observed: ≥ 100 nM

Sample CNS(=O)(=O)c1ccc(Nc2ncc(C(F)(F)F)c(-n3cc([C@@H]4CC[C@@H](O)C4)cn3)n2)cc1 (single isomer, unassigned) ; IC50 observed: ≥ 100 nM

Sample Cc1cc(Nc2ncc(C(F)(F)F)c(-n3cccn3)n2)ccc1S(=O)(=O)NCCO ; IC50 observed: ≥ 100 nM

Sample O=S1(=O)NCc2cc(Nc3ncc(C(F)(F)F)c(-n4cccn4)n3)ccc21 ; IC50 observed: ≥ 100 nM
